Origin of measurements: PubChem BioAssay AID720706

assay: GFP drop in mixed WT/humanized-ribosome E. coli culture – GFP/RFP fluorescence, OD600, single point, bacterial rRNA inhibitor project, primary screen (AID 720706); settings: E. coli WT GFP vs humanized-ribosome RFP mutants, 24 h; measured here: RFP humanized mutant strains, DMSO median 0, no signal -100, concentration not given here
Hit rate of the full screen: of about 350,000 compounds, about 5,500 (1.6%) were called active. For the sample, actives were picked, then their nearest neighbours and some compounds at random.
compounds and their reported RFP signal change
Please answer using a numeric value trailed by its unit.

Inquiry: Entry "C=C(C)COc1ccc(-c2ncncc2-c2ccc(OC)cc2)c(O)c1" : reported RFP signal change = ?
Reply text: -1.31%

Inquiry: What does the record list as RFP signal change for "C[C@@H]1CN([C@H](C)CO)C(=O)c2cccc(NS(=O)(=O)c3ccc(F)cc3)c2O[C@@H]1CN(C)S(=O)(=O)c1ccc(Cl)cc1" ?
Reply text: -1.81%

Inquiry: May I ask what RFP signal change has been recorded for "COc1ccc2c3c([nH]c2c1)[C@@H](CO)N(C(C)=O)CC31CCN(Cc2ccccc2Cl)CC1" ?
Reply text: 4.49%
